// data source = ChEMBL document CHEMBL5528050

experiment: Tmax in Sprague-Dawley rat at 15 mg/kg, po by LC-MS/MS analysis
Type: ADME, organism-based
condition-description: in vivo
quantity: Tmax (min)
Answers are plain numbers, in min.

Suppose we examine the molecule `Cc1ccccc1CN1C(=O)C2=C(CCN(Cc3ccccc3)C2)N2CCN=C12` ; what Tmax value has been reported?
24

----------
experiment: Metabolic stability in rat liver microsomes assessed as intrinsic clearance at 1 uM measured upto 60 mins in presence of NADPH regenerating system by LC-MS/MS analysis
Assay type: ADME, Microsome
condition-description: read-out: CLH
quantity: CLint scaled at 1 µM (mL/min/kg)
Give bare numbers, in mL/min/kg.

Given the entry `N#Cc1cccc(CN2CCC=C(C(=O)NCc3ccc(C(F)(F)F)cc3)C2)c1` , report its measured CLint scaled at 1 µM.
305
